system: Pseudomonas aeruginosa; assay: Antibacterial activity against Pseudomonas aeruginosa ATCC 27853 after 24 hrs by two-fold serial dilution method; format: functional; conditions: ATCC 27853, 24 h
VALUE TYPE: MIC (µg/mL)
Only the number, expressed in µg/mL, is required.

Data request, read-out MIC, for "Cc1ccc(N(Cc2ccc([N+](=O)[O-])cc2)Cc2nc3ccccc3[nH]2)cc1"
64

Then "Fc1ccc(N(Cc2nc3ccccc3[nH]2)Cc2ccc(Cl)cc2Cl)cc1" ?
64

Then "CCCN(Cc1nc2ccccc2[nH]1)c1ccc(C)cc1" ?
256

Then "Cc1ccc(NCc2nc3ccccc3[nH]2)cc1" ?
64

Then "Cl.Cl.Fc1ccc(CN(Cc2nc3ccccc3[nH]2)c2cc(C(F)(F)F)cc(C(F)(F)F)c2)c(F)c1" ?
16

Then "Cc1ccc(N(Cc2ccc(Cl)cc2)Cc2nc3ccccc3[nH]2)cc1" ?
64

Then "Cc1cc(=O)oc2cc(OCCCCCCN(Cc3nc4ccccc4[nH]3)c3ccc(F)cc3)ccc12" ?
16

Then "Clc1ccc(NCc2nc3ccccc3[nH]2)c(Cl)c1" ?
64

Then "Fc1ccc(CN(Cc2nc3ccccc3[nH]2)c2ccc(Cl)cc2Cl)c(F)c1" ?
128

Then "FC(F)(F)c1cccc(NCc2nc3ccccc3[nH]2)c1" ?
64

Then "CCCCCCN(Cc1nc2ccccc2[nH]1)c1ccc(C)cc1" ?
64

* * *

test system: Micrococcus luteus; assay: Antibacterial activity against Micrococcus luteus ATCC 4698 after 24 hrs by two-fold serial dilution method; assay type: functional; settings: ATCC 4698, 24 h
I'd appreciate it if you could supply MIC values for the items below.
Only the number, expressed in µg/mL, is required.

Data request, read-out MIC, for "FC(F)(F)c1cccc(NCc2nc3ccccc3[nH]2)c1"
32

Then "CCCCCCCCN(Cc1nc2ccccc2[nH]1)c1ccc(C)cc1.Cl.Cl" ?
64

Then "Cc1ccc(NCc2nc3ccccc3[nH]2)cc1" ?
512

Then "Fc1ccc(NCc2nc3ccccc3[nH]2)c(F)c1" ?
64

Then "Fc1ccc(N(Cc2nc3ccccc3[nH]2)Cc2ccc(Cl)cc2Cl)c(F)c1" ?
64

Then "Fc1ccc(CN(Cc2nc3ccccc3[nH]2)c2cc(C(F)(F)F)cc(C(F)(F)F)c2)c(F)c1" ?
8

Then "Fc1ccc(NCc2nc3ccccc3[nH]2)cc1" ?
64

Then CCn1cc(C(=O)O)c(=O)c2cc(F)c(N3CCNCC3)cc21 [NORFLOXACIN] ?
1

Then "FC(F)(F)c1cc(NCc2nc3ccccc3[nH]2)cc(C(F)(F)F)c1" ?
8

Then "Cc1ccc(N(Cc2nc3ccccc3[nH]2)Cc2ccccc2Cl)cc1" ?
128

Then "Cc1cc(=O)oc2cc(OCCCCCCN(Cc3nc4ccccc4[nH]3)c3ccc(F)cc3)ccc12" ?
128

Then "Ic1ccc(NCc2nc3ccccc3[nH]2)cc1" ?
128

Then "Clc1ccc(NCc2nc3ccccc3[nH]2)cc1" ?
32

Then "Fc1ccccc1N(CCCCn1c2ccccc2c2ccccc21)Cc1nc2ccccc2[nH]1" ?
128

Then "Cc1ccc(N(Cc2ccc(Cl)cc2)Cc2nc3ccccc3[nH]2)cc1" ?
128

Then "Cc1ccc(N(Cc2nc3ccccc3[nH]2)Cc2ccc(Cl)cc2Cl)cc1" ?
128

Then O=C(N[C@H](CO)[C@H](O)c1ccc([N+](=O)[O-])cc1)C(Cl)Cl [CHLORAMPHENICOL] ?
8

Then "Cl.Cl.Fc1ccc(CN(Cc2nc3ccccc3[nH]2)c2cc(C(F)(F)F)cc(C(F)(F)F)c2)c(F)c1" ?
8

Then "Clc1ccc(NCc2nc3ccccc3[nH]2)c(Cl)c1" ?
64

Then "CCCCCCCCCCN(Cc1nc2ccccc2[nH]1)c1ccc(C)cc1" ?
128

Then "CC(=O)c1cc2ccc(OCc3ccc(CN(Cc4nc5ccccc5[nH]4)c4ccc(C)cc4)cc3)cc2oc1=O" ?
128

Then "Fc1ccccc1N(Cc1ccc(Cl)c(Cl)c1)Cc1nc2ccccc2[nH]1" ?
128
